- Experimental target: NHERF4_1, Q86UT5-2
- Sequence (Q86UT5 other isoform, or with tags, fused parts or gaps): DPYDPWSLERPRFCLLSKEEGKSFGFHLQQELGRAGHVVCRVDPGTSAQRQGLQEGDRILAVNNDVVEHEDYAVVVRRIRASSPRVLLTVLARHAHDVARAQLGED
- Assay comment: holdup assay
- Set-up: key: below the threshold = too weak to quantify, mostly under pKd 3.1 to 4
- Recorded conditions: plain residues with an end cap or a label only (N-terminal biotin on a linker: ttds)
Endpoint label: pKd

SRPQRTQTQV [HPV67-E6, A4U7F2]; below the threshold
ERKLSSESQV [LRP4, O75096]; below the threshold
TVASEKESVM [SLC1A5, Q15758]; below the threshold
